molecular target: ATP-dependent 6-phosphofructokinase (Trypanosoma brucei brucei); test: qHTS Assay to Find Inhibitors of T. brucei phosphofructokinase; note: nearly all actives have a fitted effect of over 60% in size; details: T. brucei PFK, ADP-Glo luminescence; series mostly up to 57.5 µM
In all, about 330,000 compounds went through this assay and about 560 (0.17%) were called active. Another 1% or so got no clear call; they are omitted. Calls come from the whole dose curve; as a rule, active = well fitted inhibition curve with a large enough effect; inconclusive = small, poorly fitted or top-dose-only effect, or effect the other way; inactive = flat fitted curve, though single readings scatter. This is one part of a sample in which actives are shown more often than they occur.
Parameter call: string, one of active, inactive

What is the recorded call for this compound in the test? OC(Cn1c2ccccc2c2ccccc21)C[n+]1ccccc1 (centres undefined)
inactive

What is the recorded call for this compound in the test? CC(Cc1cccs1)NCc1ccc(Cl)cc1 (centres undefined)
inactive

What is the recorded call for this compound in the test? `Cc1ccc(-n2c(-c3ccc([N+](=O)[O-])cc3)nc3ccccc3c2=O)cc1`
inactive

What is the recorded call for this compound in the test? `CCCCCCN=C(CC)c1c(O)n(CCCC)c(=O)[nH]c1=O`
inactive

What is the recorded call for this compound in the test? `COc1ccc(CCn2c(O)c(C=NCCCn3ccnc3)c(=O)[nH]c2=O)cc1OC`
inactive

What is the recorded call for this compound in the test? CCOP(=S)(OCC)C(O)CCCCCn1c(=O)c(F)cn(C2CCCO2)c1=O (centres undefined)
inactive

What is the recorded call for this compound in the test? `Cn1nnnc1NCc1ccc(Cl)c(Cl)c1`
active

What is the recorded call for this compound in the test? `O=C(Cc1ccc([N+](=O)[O-])cc1)N/N=C/c1ccco1`
active

What is the recorded call for this compound in the test? `O=C1/C(=C\c2ccc3c(c2)OCO3)N2CCC1CC2`
inactive
